Data origin: patent US20220259252A1

Test system: HIV pseudotyped virus (NL4-3 provirus, luciferase reporter), M184V, in U373 cells expressing human CD4 and CXCR4 or CCR5
Type: cell-based
experimental_setup: PSV assay, luciferase signal after 3 days
pIC50: −log10 of the molar value.
Assign y to entries whose pIC50 meets or exceeds 7; assign n to the rest.

compound	class_label
C#C[C@]1(CO)O[C@@H](n2cnc3c(N)nc(F)nc32)C[C@@H]1OC(=O)CCCC(=O)OC(COC(=O)CCCCCCCCCCCCC)COC(=O)CCCCCCCCCCCCC	n
C#C[C@]1(CO)O[C@@H](n2cnc3c(N)nc(F)nc32)C[C@@H]1OC(=O)CCCC(=O)OC(COC(=O)CCCCCC)COC(=O)CCCCCC	n
C#C[C@]1(CO)O[C@@H](n2cnc3c(N)nc(F)nc32)C[C@@H]1OC(=O)CCCCCCCCCCCCC(=O)O	y
C#C[C@]1(CO)O[C@@H](n2cnc3c(N)nc(F)nc32)C[C@@H]1O [EFdA, 4′-ethynyl-2-fluoro-2′-deoxyadenosine, reference compound]	y
C#C[C@]1(CO)O[C@@H](n2cnc3c(N)nc(F)nc32)C[C@@H]1OC(=O)CCCCCCCCCCCCCCCCCCC(=O)O	y
C#C[C@]1(CO)O[C@@H](n2cnc3c(N)nc(F)nc32)C[C@@H]1OC(=O)COCCOC	y
C#C[C@]1(CO)O[C@@H](n2cnc3c(N)nc(F)nc32)C[C@@H]1OC(=O)COCCOCCOC	y
C#C[C@]1(CO)O[C@@H](n2cnc3c(N)nc(F)nc32)C[C@@H]1OC(=O)CCCCCCCCC(=O)O	n
C#C[C@]1(CO)O[C@@H](n2cnc3c(N)nc(F)nc32)C[C@@H]1OC(=O)CNC(=O)CCCCCC	y
